- TARGET_OF_ASSAY: Ionotropic glutamate receptor NMDA 1/2D (Rattus norvegicus) (UniProt P35439+Q62645)
- ASSAY_SUMMARY: Positive allosteric modulation of recombinant rat GluN1/GluN2D receptor expressed in xenopus laevis oocyte assessed as potentiation of glutamate and glycine-induced current response at 30 uM at holding potential -40mV by two electrode voltage clamp method relative to control
Label criterion met for high-side Emax (at or above 200%) and criterion not met for low-side Emax (below it).

{"columns": ["COMPOUND", "TARGET_OF_ASSAY", "GROUP"],
 "data": [
  ["COc1ccc(OCC2c3ccc(OC(C)C)cc3CCN2C(=O)c2cccc([N+](=O)[O-])c2)cc1 (stereo unspecified)", "Ionotropic glutamate receptor NMDA 1/2D (Rattus norvegicus) (UniProt P35439+Q62645)", "criterion met"],
  ["COc1ccc(OC[C@H]2c3ccc(OC(C)C)cc3CCN2C(=S)c2cccc(Cl)c2)cc1", "Ionotropic glutamate receptor NMDA 1/2D (Rattus norvegicus) (UniProt P35439+Q62645)", "criterion met"],
  ["CCOc1ccc(OCC2c3ccc(OC(C)C)cc3CCN2C(=S)c2ccc(F)c(Cl)c2)cc1 (stereo unspecified)", "Ionotropic glutamate receptor NMDA 1/2D (Rattus norvegicus) (UniProt P35439+Q62645)", "criterion not met"],
  ["COc1ccc(OCC2c3ccc(OC(C)C)cc3CCN2C(=O)c2cccc(I)c2)cc1 (stereo unspecified)", "Ionotropic glutamate receptor NMDA 1/2D (Rattus norvegicus) (UniProt P35439+Q62645)", "criterion met"],
  ["COc1ccc(OCC2c3ccc(N4CCOCC4)cc3CCN2C(=O)c2cccc(Cl)c2)cc1 (stereo unspecified)", "Ionotropic glutamate receptor NMDA 1/2D (Rattus norvegicus) (UniProt P35439+Q62645)", "criterion met"],
  ["COc1ccc(OCC2c3ccc(N(C)C)cc3CCN2C(=O)c2cccc(Cl)c2)cc1 (stereo unspecified)", "Ionotropic glutamate receptor NMDA 1/2D (Rattus norvegicus) (UniProt P35439+Q62645)", "criterion met"],
  ["CC(C)Oc1ccc(OCC2c3ccc(OC(C)C)cc3CCN2C(=S)c2cccc(Cl)c2)cc1 (stereo unspecified)", "Ionotropic glutamate receptor NMDA 1/2D (Rattus norvegicus) (UniProt P35439+Q62645)", "criterion not met"],
  ["COc1ccc(OCC2c3ccc(N(C)C(C)C)cc3CCN2C(=O)c2cccc(Cl)c2)cc1 (stereo unspecified)", "Ionotropic glutamate receptor NMDA 1/2D (Rattus norvegicus) (UniProt P35439+Q62645)", "criterion met"],
  ["CCOc1ccc(OCC2c3ccc(OC(C)C)cc3CCN2C(=S)c2cccc(Cl)c2)cc1 (stereo unspecified)", "Ionotropic glutamate receptor NMDA 1/2D (Rattus norvegicus) (UniProt P35439+Q62645)", "criterion not met"],
  ["COc1ccc(OCC2c3ccc(OC(C)C)cc3CCN2C(=O)c2ccc(Cl)cc2)cc1 (stereo unspecified)", "Ionotropic glutamate receptor NMDA 1/2D (Rattus norvegicus) (UniProt P35439+Q62645)", "criterion met"],
  ["CCOc1ccc(OCC2c3ccc(OC4CCCC4)cc3CCN2C(=O)c2cccc(F)c2)cc1 (stereo unspecified)", "Ionotropic glutamate receptor NMDA 1/2D (Rattus norvegicus) (UniProt P35439+Q62645)", "criterion not met"],
  ["COc1ccc(OC[C@@H]2c3ccc(OC(C)C)cc3CCN2C(=O)c2cccc(Cl)c2)cc1", "Ionotropic glutamate receptor NMDA 1/2D (Rattus norvegicus) (UniProt P35439+Q62645)", "criterion met"],
  ["COc1ccc(OCC2c3ccc(N(C)C)cc3CCN2C(=O)c2cccc(Br)c2)cc1 (stereo unspecified)", "Ionotropic glutamate receptor NMDA 1/2D (Rattus norvegicus) (UniProt P35439+Q62645)", "criterion met"],
  ["COc1ccc(OC[C@H]2c3ccc(OC(C)C)cc3CCN2C(=O)c2cccc(Cl)c2)cc1", "Ionotropic glutamate receptor NMDA 1/2D (Rattus norvegicus) (UniProt P35439+Q62645)", "criterion met"],
  ["COc1ccc(OCC2c3ccc(OC(C)C)cc3CCN2C(=S)c2cccc(Cl)c2)cc1 (stereo unspecified)", "Ionotropic glutamate receptor NMDA 1/2D (Rattus norvegicus) (UniProt P35439+Q62645)", "criterion met"],
  ["COc1cccc(OCC2c3ccc(OC(C)C)cc3CCN2C(=O)c2cccc(Cl)c2)c1 (stereo unspecified)", "Ionotropic glutamate receptor NMDA 1/2D (Rattus norvegicus) (UniProt P35439+Q62645)", "criterion not met"],
  ["CC(C)Oc1ccc2c(c1)CCN(C(=O)c1cccc(F)c1)C2COc1ccc(OC(F)(F)F)cc1 (stereo unspecified)", "Ionotropic glutamate receptor NMDA 1/2D (Rattus norvegicus) (UniProt P35439+Q62645)", "criterion not met"],
  ["CCOc1ccc(OCC2c3ccc(OC(C)C)cc3CCN2C(=O)c2ccc(F)c(Cl)c2)cc1 (stereo unspecified)", "Ionotropic glutamate receptor NMDA 1/2D (Rattus norvegicus) (UniProt P35439+Q62645)", "criterion not met"],
  ["COc1ccc(OCC2c3ccc(OC4CCCCC4)cc3CCN2C(=O)c2cccc(Cl)c2)cc1 (stereo unspecified)", "Ionotropic glutamate receptor NMDA 1/2D (Rattus norvegicus) (UniProt P35439+Q62645)", "criterion met"],
  ["CCOc1ccc(OCC2c3ccc(OC(C)C)cc3CCN2C(=S)c2cccc(Br)c2)cc1 (stereo unspecified)", "Ionotropic glutamate receptor NMDA 1/2D (Rattus norvegicus) (UniProt P35439+Q62645)", "criterion not met"],
  ["CC(C)Oc1ccc2c(c1)CCN(C(=O)c1cccc(Cl)c1)C2COc1ccc(OC(F)(F)F)cc1 (stereo unspecified)", "Ionotropic glutamate receptor NMDA 1/2D (Rattus norvegicus) (UniProt P35439+Q62645)", "criterion not met"],
  ["COc1ccc(OC[C@@H]2c3ccc(OC(C)C)cc3CCN2C(=S)c2cccc(Cl)c2)cc1", "Ionotropic glutamate receptor NMDA 1/2D (Rattus norvegicus) (UniProt P35439+Q62645)", "criterion met"],
  ["CCOc1ccc2c(c1)CCN(C(=O)c1cccc(Cl)c1)C2COc1ccc(OC)cc1 (stereo unspecified)", "Ionotropic glutamate receptor NMDA 1/2D (Rattus norvegicus) (UniProt P35439+Q62645)", "criterion met"],
  ["COc1ccc(OCC2c3ccc(NC(C)C)cc3CCN2C(=O)c2cccc(Cl)c2)cc1 (stereo unspecified)", "Ionotropic glutamate receptor NMDA 1/2D (Rattus norvegicus) (UniProt P35439+Q62645)", "criterion met"],
  ["CCC(CC)Oc1ccc2c(c1)CCN(C(=O)c1cccc(Cl)c1)C2COc1ccc(OC)cc1 (stereo unspecified)", "Ionotropic glutamate receptor NMDA 1/2D (Rattus norvegicus) (UniProt P35439+Q62645)", "criterion met"],
  ["CCOc1ccc(OCC2c3ccc(OC(C)C)cc3CCN2C(=O)c2ccc(F)c(F)c2)cc1 (stereo unspecified)", "Ionotropic glutamate receptor NMDA 1/2D (Rattus norvegicus) (UniProt P35439+Q62645)", "criterion not met"],
  ["CCOc1ccc(OCC2c3ccc(OC(C)C)cc3CCN2C(=S)c2cccc(C(F)(F)F)c2)cc1 (stereo unspecified)", "Ionotropic glutamate receptor NMDA 1/2D (Rattus norvegicus) (UniProt P35439+Q62645)", "criterion not met"],
  ["CCOc1ccc(OC[C@@H]2c3ccc(OC(C)C)cc3CCN2C(=S)c2cccc(F)c2)cc1", "Ionotropic glutamate receptor NMDA 1/2D (Rattus norvegicus) (UniProt P35439+Q62645)", "criterion not met"],
  ["COc1ccc(OCC2c3ccc(OC(C)C)cc3CCN2C(=S)c2cccc(F)c2)cc1 (stereo unspecified)", "Ionotropic glutamate receptor NMDA 1/2D (Rattus norvegicus) (UniProt P35439+Q62645)", "criterion met"],
  ["CCOc1ccc(OCC2c3ccc(OCC(C)C)cc3CCN2C(=O)c2cccc(Cl)c2)cc1 (stereo unspecified)", "Ionotropic glutamate receptor NMDA 1/2D (Rattus norvegicus) (UniProt P35439+Q62645)", "criterion met"],
  ["CC(C)Oc1ccc(OCC2c3ccc(OC(C)C)cc3CCN2C(=S)c2cccc(F)c2)cc1 (stereo unspecified)", "Ionotropic glutamate receptor NMDA 1/2D (Rattus norvegicus) (UniProt P35439+Q62645)", "criterion not met"],
  ["COc1ccc(OCC2c3ccc(N4CCCCC4)cc3CCN2C(=O)c2cccc(Cl)c2)cc1 (stereo unspecified)", "Ionotropic glutamate receptor NMDA 1/2D (Rattus norvegicus) (UniProt P35439+Q62645)", "criterion met"],
  ["COc1ccc(OCC2c3ccc(N4CCOCC4)cc3CCN2C(=O)c2cccc(Br)c2)cc1 (stereo unspecified)", "Ionotropic glutamate receptor NMDA 1/2D (Rattus norvegicus) (UniProt P35439+Q62645)", "criterion met"],
  ["CCOc1ccc(OCC2c3ccc(OC(C)C)cc3CCN2C(=S)c2cccc(F)c2)cc1 (stereo unspecified)", "Ionotropic glutamate receptor NMDA 1/2D (Rattus norvegicus) (UniProt P35439+Q62645)", "criterion not met"],
  ["CC(C)Oc1ccc(OCC2c3ccc(OC(C)C)cc3CCN2C(=S)c2cccc(C(F)(F)F)c2)cc1 (stereo unspecified)", "Ionotropic glutamate receptor NMDA 1/2D (Rattus norvegicus) (UniProt P35439+Q62645)", "criterion not met"],
  ["CCOc1ccc(OCC2c3ccc(OCC(C)C)cc3CCN2C(=O)c2cccc(F)c2)cc1 (stereo unspecified)", "Ionotropic glutamate receptor NMDA 1/2D (Rattus norvegicus) (UniProt P35439+Q62645)", "criterion met"]
]}
